# protocol: Bioavailability in C57BL/6J mouse at 1 mg/kg, sc measured during 5 mins to 24 hrs by LC/MS/MS method
# Type: ADME, organism-based
# experimentalConditions: in vivo
measurementLabel: bioavailability
Please don't drop the unit; write it after the number.

What bioavailability value was documented for this compound, CC[C@](C)(NC(=O)[C@H]1C[C@H](O)CN1C(=O)[C@H](CO)NC(=O)c1c[nH]cn1)C(=O)N[C@@H](Cc1ccncc1)C(=O)N[C@@H](CC1CCCCC1)C(=O)N[C@@H](CC(C)(C)C)C(=O)N[C@@H](CC(N)=O)C(=O)N[C@@H](CCCCN)C(=O)NC(C)(C)C(=O)N[C@H](C(=O)N[C@@H](CCCNC(=N)N)C(=O)N[C@@H](CCC(N)=O)C(=O)N[C@@H](CCCNC(=N)N)C(=O)N[C@@H](CC1CCCCC1)C(N)=O)[C@@H](C)O ?
60.2%

What bioavailability value was documented for this compound, CC[C@](C)(NC(=O)[C@H](CC1CCCCC1)NC(=O)[C@H](Cc1ccncc1)NC(=O)[C@](C)(CC)NC(=O)[C@H]1C[C@H](O)CN1C(=O)[C@H](CO)NC(C)=O)C(=O)N[C@@H](CC(N)=O)C(=O)N[C@@H](CCCCN)C(=O)NC(C)(C)C(=O)N[C@H](C(=O)N[C@@H](CCCNC(=N)N)C(=O)N[C@@H](CCC(N)=O)C(=O)N[C@@H](CCCNC(=N)N)C(=O)N[C@@H](CC1CCCCC1)C(N)=O)[C@@H](C)O ?
108%

What bioavailability value was documented for this compound, CC[C@](C)(NC(=O)[C@H]1CCCN1C(=O)[C@H](CO)NC(C)=O)C(=O)N[C@@H](Cc1ccncc1)C(=O)N[C@@H](CC1CCCCC1)C(=O)NC(C)(C)C(=O)N[C@@H](CC(N)=O)C(=O)N[C@@H](CCCCN)C(=O)NC(C)(C)C(=O)N[C@H](C(=O)N[C@@H](CCCNC(=N)N)C(=O)N[C@@H](CCC(N)=O)C(=O)N[C@@H](CCCNC(=N)N)C(=O)N[C@@H](CC1CCCCC1)C(N)=O)[C@@H](C)O ?
53.7%

---

# targetOrSystem: Neuropeptide Y receptor type 2 (Homo sapiens, UniProt P49146)
# Sequence (P49146 whole entry): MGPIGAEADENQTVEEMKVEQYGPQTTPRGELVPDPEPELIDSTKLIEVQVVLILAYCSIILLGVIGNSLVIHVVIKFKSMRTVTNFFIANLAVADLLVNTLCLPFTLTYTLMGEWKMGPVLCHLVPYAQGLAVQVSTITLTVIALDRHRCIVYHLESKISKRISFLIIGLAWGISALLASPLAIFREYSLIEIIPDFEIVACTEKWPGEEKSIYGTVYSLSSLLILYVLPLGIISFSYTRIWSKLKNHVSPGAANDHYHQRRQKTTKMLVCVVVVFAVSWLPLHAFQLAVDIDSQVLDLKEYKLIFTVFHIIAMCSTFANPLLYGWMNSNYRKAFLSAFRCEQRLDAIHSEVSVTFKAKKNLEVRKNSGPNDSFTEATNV
# protocol: Agonist activity at human neuropeptide Y2 receptor expressed in CHO cell membranes assessed as stimulation of [35S]GTPgammaS binding incubated for 120 mins by liquid scintillation counting method
Hi there, I'd appreciate the recorded pEC50 for every entry that follows.
pEC50 here: minus log base 10 of the concentration, concentration in moles per litre.

What pEC50 value was documented for this compound, CC[C@@](C)(NC(=O)[C@H](CO)NC(C)=O)C(=O)N[C@@H](CCCNC(=N)N)C(=O)N[C@@H](Cc1cnc[nH]1)C(=O)N[C@@H](CC1CCCCC1)C(=O)N[C@@H](CC1CCCCC1)C(=O)N[C@@H](CC(N)=O)C(=O)N[C@@H](CC(C)C)C(=O)NC(C)(C)C(=O)N[C@H](C(=O)N[C@@H](CCCNC(=N)N)C(=O)N[C@@H](CCC(N)=O)C(=O)N[C@@H](CCCNC(=N)N)C(=O)N[C@@H](CC1CCCCC1)C(N)=O)[C@@H](C)O ?
9.55

What pEC50 value was documented for this compound, CC[C@@](C)(NC(=O)[C@H](CCCCN)NC(=O)[C@H](CC(N)=O)NC(=O)C(C)(C)NC(=O)[C@H](CC1CCCCC1)NC(=O)[C@H](Cc1ccncc1)NC(=O)[C@H](CCCNC(=N)N)NC(=O)[C@H]1CCCN1C(=O)[C@H](CO)NC(C)=O)C(=O)N[C@H](C(=O)N[C@@H](CCCNC(=N)N)C(=O)N[C@@H](CCC(N)=O)C(=O)N[C@@H](CCCNC(=N)N)C(=O)N[C@@H](CC1CCCCC1)C(N)=O)[C@@H](C)O ?
9.96

---

# protocol: Cmax in C57BL/6J mouse at 1 mg/kg, sc measured during 5 mins to 24 hrs by LC/MS/MS method
# Format: ADME, organism-based
# Set-up: dose 1 mg/kg, route subcutaneous
# experimentalConditions: in vivo
Hi there, I'd appreciate the recorded Cmax for every entry that follows.
State just the number; it will be interpreted in nM.

What Cmax value was documented for this compound, CC[C@](C)(NC(=O)[C@H](CC1CCCCC1)NC(=O)[C@H](Cc1ccncc1)NC(=O)[C@](C)(CC)NC(=O)[C@H]1C[C@H](O)CN1C(=O)[C@H](CO)NC(C)=O)C(=O)N[C@@H](CC(N)=O)C(=O)N[C@@H](CCCCN)C(=O)NC(C)(C)C(=O)N[C@H](C(=O)N[C@@H](CCCNC(=N)N)C(=O)N[C@@H](CCC(N)=O)C(=O)N[C@@H](CCCNC(=N)N)C(=O)N[C@@H](CC1CCCCC1)C(N)=O)[C@@H](C)O ?
666

What Cmax value was documented for this compound, CC[C@](C)(NC(=O)[C@H]1C[C@H](O)CN1C(=O)[C@H](CO)NC(=O)c1c[nH]cn1)C(=O)N[C@@H](Cc1ccncc1)C(=O)N[C@@H](CC1CCCCC1)C(=O)N[C@@H](CC(C)(C)C)C(=O)N[C@@H](CC(N)=O)C(=O)N[C@@H](CCCCN)C(=O)NC(C)(C)C(=O)N[C@H](C(=O)N[C@@H](CCCNC(=N)N)C(=O)N[C@@H](CCC(N)=O)C(=O)N[C@@H](CCCNC(=N)N)C(=O)N[C@@H](CC1CCCCC1)C(N)=O)[C@@H](C)O ?
452

What Cmax value was documented for this compound, CC[C@](C)(NC(=O)[C@H]1CCCN1C(=O)[C@H](CO)NC(C)=O)C(=O)N[C@@H](Cc1ccncc1)C(=O)N[C@@H](CC1CCCCC1)C(=O)NC(C)(C)C(=O)N[C@@H](CC(N)=O)C(=O)N[C@@H](CCCCN)C(=O)NC(C)(C)C(=O)N[C@H](C(=O)N[C@@H](CCCNC(=N)N)C(=O)N[C@@H](CCC(N)=O)C(=O)N[C@@H](CCCNC(=N)N)C(=O)N[C@@H](CC1CCCCC1)C(N)=O)[C@@H](C)O ?
227

---

# protocol: AUC (0 to 24 hrs) in C57BL/6J mouse at 1 mg/kg, iv measured during 5 mins to 24 hrs by LC/MS/MS method
# Assay type: ADME, organism-based
# Parameters: dose 1 mg/kg, time < 24 hr, route intravenous
# experimentalConditions: in vivo
Hi there, I'd appreciate the recorded AUC(0-t) at 24 h for every entry that follows.
Please don't drop the unit; write it after the number.

What AUC(0-t) at 24 h value was documented for this compound, CC[C@](C)(NC(=O)[C@H](CC1CCCCC1)NC(=O)[C@H](Cc1ccncc1)NC(=O)[C@](C)(CC)NC(=O)[C@H]1C[C@H](O)CN1C(=O)[C@H](CO)NC(C)=O)C(=O)N[C@@H](CC(N)=O)C(=O)N[C@@H](CCCCN)C(=O)NC(C)(C)C(=O)N[C@H](C(=O)N[C@@H](CCCNC(=N)N)C(=O)N[C@@H](CCC(N)=O)C(=O)N[C@@H](CCCNC(=N)N)C(=O)N[C@@H](CC1CCCCC1)C(N)=O)[C@@H](C)O ?
0.435 µM·h

What AUC(0-t) at 24 h value was documented for this compound, CC[C@](C)(NC(=O)[C@H]1CCCN1C(=O)[C@H](CO)NC(C)=O)C(=O)N[C@@H](Cc1ccncc1)C(=O)N[C@@H](CC1CCCCC1)C(=O)NC(C)(C)C(=O)N[C@@H](CC(N)=O)C(=O)N[C@@H](CCCCN)C(=O)NC(C)(C)C(=O)N[C@H](C(=O)N[C@@H](CCCNC(=N)N)C(=O)N[C@@H](CCC(N)=O)C(=O)N[C@@H](CCCNC(=N)N)C(=O)N[C@@H](CC1CCCCC1)C(N)=O)[C@@H](C)O ?
0.232 µM·h

What AUC(0-t) at 24 h value was documented for this compound, CC[C@](C)(NC(=O)[C@H]1C[C@H](O)CN1C(=O)[C@H](CO)NC(=O)c1c[nH]cn1)C(=O)N[C@@H](Cc1ccncc1)C(=O)N[C@@H](CC1CCCCC1)C(=O)N[C@@H](CC(C)(C)C)C(=O)N[C@@H](CC(N)=O)C(=O)N[C@@H](CCCCN)C(=O)NC(C)(C)C(=O)N[C@H](C(=O)N[C@@H](CCCNC(=N)N)C(=O)N[C@@H](CCC(N)=O)C(=O)N[C@@H](CCCNC(=N)N)C(=O)N[C@@H](CC1CCCCC1)C(N)=O)[C@@H](C)O ?
0.577 µM·h
